# credit: ChEMBL document CHEMBL4052782

Biological target: 5-hydroxytryptamine receptor 6 (Homo sapiens, UniProt P50406)
Sequence (P50406 whole entry): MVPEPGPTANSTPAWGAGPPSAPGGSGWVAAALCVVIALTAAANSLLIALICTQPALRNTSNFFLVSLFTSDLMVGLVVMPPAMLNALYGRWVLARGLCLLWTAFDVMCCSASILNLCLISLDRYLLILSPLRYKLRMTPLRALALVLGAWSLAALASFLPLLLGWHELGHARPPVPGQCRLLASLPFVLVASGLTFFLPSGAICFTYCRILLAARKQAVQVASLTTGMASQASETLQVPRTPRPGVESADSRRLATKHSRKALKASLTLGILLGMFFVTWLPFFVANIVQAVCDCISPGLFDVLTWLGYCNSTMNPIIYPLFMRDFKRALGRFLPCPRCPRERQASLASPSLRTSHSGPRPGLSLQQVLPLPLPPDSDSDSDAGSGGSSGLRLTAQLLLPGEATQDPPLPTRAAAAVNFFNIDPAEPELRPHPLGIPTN
Experiment: Antagonist activity at human 5-HT6R expressed in human HeLa cells assessed as inhibition of 5-HT-induced cAMP levels pre-treated for 10 mins before 30 mins stimulation with 5-HT by D2-dye based HTRF assay
value.kind: IC50 (µM)
Quick reminder: number only, in µM, skip the unit.

Problem: // lookup IC50 for O=C1c2[nH]nc(NS(=O)(=O)c3ccc4ccccc4c3)c2CCN1CC1CCNCC1
Result: 0.31

Problem: Give its IC50 value. Item: Cc1c(Cl)cccc1S(=O)(=O)NCc1cc(CC(C)C)n(-c2ccccc2)n1
Result: 4.01

Problem: # IC50 lookup, item CC(C)Cc1cc(CNS(=O)(=O)c2c(Cl)cccc2Cl)nn1-c1ccccc1
Result: 5.65

Problem: Could you share which IC50 value was measured for CC(C)Cc1cc(CNS(=O)(=O)c2cccc(Cl)c2)nn1-c1ccccc1 ?
Result: 10.9

Problem: Dear colleague, I am looking for the recorded IC50 of the following molecule: CC(C)Cc1cc(CNS(=O)(=O)c2ccc3ccccc3c2)nn1-c1ccccc1
Result: 3.3

Problem: Which IC50 reading was recorded for the molecule CC(C)Cc1cc(CNS(=O)(=O)c2cccc3cccnc23)nn1-c1ccccc1 ?
Result: 1.42

Problem: Recorded IC50 for CC(C)Cc1cc(CNS(=O)(=O)c2cccc3ccccc23)nn1-c1ccccc1 , please?
Result: 2.43

Problem: Given the entry CC(C)Cc1cc(CNS(=O)(=O)c2cccc3cccnc23)nn1-c1ccc(F)cc1 , report its measured IC50.
Result: 1.78

Problem: For CC(C)Cc1cc(CNS(=O)(=O)c2ccc(C(C)(C)C)cc2)nn1-c1ccccc1 , what is its reported IC50?
Result: 8.78
